experiment: Binding affinity to BTN3A1 in human PBMC assessed as stimulation of Vgamma9 Vdelta2 T cells incubated for 3 days and measured after 11 days post compound removal by flow cytometry
pEC50: −log10 of the molar value.
Item-by-item account of pEC50
property_measured: pEC50

COC(=O)CNP(=O)(CC/C=C(\C)CO)Oc1ccc2ccccc2c1 (stereo not given) = 9.24
CCOC(=O)CNP(=O)(CC/C=C(\C)CO)Oc1ccc2ccccc2c1 (stereo not given) = 9.28
C/C(=C\CCP(=O)(NCC(=O)OC(C)C)Oc1cccc2ccccc12)CO (stereo not given) = 9.47
C/C(=C\CCP(=O)(NCC(=O)OC(C)C)Oc1ccc2ccccc2c1)CO (stereo not given) = 9.09
C/C(=C\CCP(=O)(NCC(=O)OC(C)C)Oc1ccccc1)CO (stereo not given) = 8.96
CCOC(=O)CNP(=O)(CC/C=C(\C)CO)Oc1ccccc1 (stereo not given) = 9.44
COC(=O)CNP(=O)(CC/C=C(\C)CO)Oc1cccc2ccccc12 (stereo not given) = 9.36
COC(=O)CNP(=O)(CC/C=C(\C)CO)Oc1ccccc1 (stereo not given) = 8.82
CCOC(=O)CNP(=O)(CC/C=C(\C)CO)Oc1cccc2ccccc12 (stereo not given) = 9.44
